Each recorded value in this set is attributed to ChEMBL document CHEMBL3352518.

Listed next: entries and their corresponding CC50 at 72 h.
# protocol.summary: Cytotoxicity against human TZM-bl cells after 3 days by XTT assay
# Assay type: cell-based
experimental.readout: CC50 at 72 h (µM)

compound: CC1CCCCC1Nc1cc(CCc2ccccc2)[nH]c(=O)c1I (stereo not given)
numeric.result: 50.2
--
compound: CC(C)c1c(Oc2ccccc2)cc(CCc2ccccc2)[nH]c1=O
numeric.result: 195
--
compound: CC1CCCCC1Nc1cc(CCc2ccccc2)[nH]c(=O)c1Br (stereo not given)
numeric.result: 131
--
compound: CC(C)c1c(Sc2ccccc2)cc(CCc2ccccc2)[nH]c1=O
numeric.result: 136
--
compound: O=c1[nH]c(CCc2ccccc2)cc(Oc2ccccc2)c1I
numeric.result: 181

----------
# protocol.summary: Selectivity index, ratio of CC50 for human TZM-bl cells to EC50 for wild-type HIV-1 SF33
# Format: toxicity, cell-based
# details: read-out: Ratio CC50/EC50
Some compounds, each annotated with its measured selectivity ratio.

compound: CC(C)c1c(Sc2ccccc2)cc(CCc2ccccc2)[nH]c1=O
selectivity ratio: 998
//
compound: CC(C)c1c(Oc2ccccc2)cc(CCc2ccccc2)[nH]c1=O
selectivity ratio: 3470
//
compound: O=c1[nH]c(CCc2ccccc2)cc(Oc2ccccc2)c1I
selectivity ratio: 1200
//
compound: CC1CCCCC1Nc1cc(CCc2ccccc2)[nH]c(=O)c1I (stereo not given)
selectivity ratio: 18.5
//
compound: CC1CCCCC1Nc1cc(CCc2ccccc2)[nH]c(=O)c1Br (stereo not given)
selectivity ratio: 9.6

----------
# experimental.target: UniProtKB Q72547
# protocol.summary: Inhibition of HIV-1 recombinant reverse transcriptase after 1 hr by streptavidinalkaline phosphatase reporter system
Below, each entry is listed with its recorded IC50.

compound: O=c1[nH]c(CCc2ccccc2)cc(NC2CCCC2)c1Br
experimental.target: UniProtKB Q72547
IC50 / µM: 43.3
--
compound: CC1CCCCC1Nc1cc(CCc2ccccc2)[nH]c(=O)c1I (stereo not given)
experimental.target: UniProtKB Q72547
IC50 / µM: 0.42
--
compound: O=c1[nH]c(CCc2ccccc2)cc(Oc2ccccc2)c1I
experimental.target: UniProtKB Q72547
IC50 / µM: 0.29
--
compound: Cc1ccc(Sc2cc(CCc3ccccc3)[nH]c(=O)c2I)cc1
experimental.target: UniProtKB Q72547
IC50 / µM: 12
--
compound: O=c1[nH]c(CCc2ccccc2)cc(Sc2ccccc2)c1I
experimental.target: UniProtKB Q72547
IC50 / µM: 20.3

----------
# experimental.target: Human immunodeficiency virus type 1 reverse transcriptase (Human immunodeficiency virus 1, UniProt Q72547)
# protocol.summary: Inhibition of HIV-1 recombinant reverse transcriptase after 1 hr by streptavidinalkaline phosphatase reporter system
Categories are assigned from the measured IC50 using these intervals: low interval = under 8 µM, middle interval = from 8 µM up to 20 µM, high interval = 20 µM and over

molecule: O=c1[nH]c(CCc2ccccc2)cc(NC2CCCCC2)c1I
class.label: middle interval

molecule: CC(C)c1c(Sc2ccccc2)cc(CCc2ccccc2)[nH]c1=O
class.label: low interval

molecule: O=c1[nH]c(CCc2ccccc2)cc(Nc2ccccc2)c1Br
class.label: middle interval

molecule: O=c1[nH]c(CCc2ccccc2)cc(Sc2ccccc2)c1Br
class.label: high interval

molecule: O=c1[nH]c(CCc2ccccc2)cc(NC2CCCC2)c1I
class.label: high interval

molecule: Cc1ccc(Sc2cc(CCc3ccccc3)[nH]c(=O)c2Br)cc1
class.label: middle interval

molecule: CC1CCCCC1Nc1cc(CCc2ccccc2)[nH]c(=O)c1Br (stereo unspecified)
class.label: low interval

molecule: O=c1[nH]c(CCc2ccccc2)cc(NC2CCCCC2)c1Br
class.label: high interval

molecule: CN(C)c1c(Sc2ccccc2)cc(CCc2ccccc2)[nH]c1=O
class.label: middle interval

molecule: CC(C)c1c(Oc2ccccc2)cc(CCc2ccccc2)[nH]c1=O
class.label: low interval
